Test system: PC-3
test method notes: Cytotoxicity against human PC3 cells after 72 hrs by WST-1 assay
Assay type: functional, cell-based
particulars: Homo sapiens, PC-3, 72 h
measured attribute: log10 IC50 (log10 of the value in µM)
Please interpret these as log10 of IC50 where IC50 is in µM.

INSERT INTO measurements (compound, target_under_test, value_reported) VALUES
  ('Cc1cc(C)c2c(c1)C(c1ccc(O)cc1)(c1ccc(F)cc1)C(=O)N2 (racemic)', 'PC-3', -0.68);

Form: compound = O=C1Nc2c(ccc(F)c2F)C1(c1ccc(O)cc1)c1cccs1 (racemic) ; log10 IC50 = -3.52

Form: compound = COc1ccc2c(c1C)NC(=O)C2(c1ccc(O)cc1)C1CCCCC1 (racemic) ; log10 IC50 = -1.55

Form: compound = O=C1Nc2c(ccc(F)c2F)C1(c1ccc(O)cc1)C1CCCC1 (racemic) ; log10 IC50 = -2.09

Form: compound = O=C1Nc2c(ccc(F)c2F)C1(c1ccc(O)cc1)c1ccc(F)c(F)c1 (racemic) ; log10 IC50 = -1.72

Form: compound = O=C1Nc2c(ccc(F)c2F)C1(c1ccc(O)cc1)c1ccc(O)cc1 ; log10 IC50 = -0.16

Form: compound = Cc1c(F)ccc2c1NC(=O)C2(c1ccc(O)cc1)C1CCCCCC1 (racemic) ; log10 IC50 = -1.52

Form: compound = COc1ccc(C2(c3cccc(O)c3)C(=O)Nc3c2ccc(F)c3F)cc1 (racemic) ; log10 IC50 = -0.84

Form: compound = O=C1Nc2c(ccc(F)c2F)C1(c1ccc(O)cc1)c1ccc(F)cc1 (racemic) ; log10 IC50 = -2.07

Form: compound = COc1ccc2c(c1C)NC(=O)C2(c1ccc(O)cc1)c1ccc(F)cc1 (racemic) ; log10 IC50 = -2.05

Form: compound = Cc1c(Cl)ccc2c1NC(=O)C2(c1ccc(O)cc1)C1CCCCCC1 (racemic) ; log10 IC50 = -0.82
